# tgt: recombinant hTREX1(1-242)WT (hT1) (Homo sapiens)
# Construct: recombinant hTREX1(1-242)^WT
# measurement.description: fluorescence-based exonuclease assay, hTREX1 IC50 and HTS
# Assay type: biochemical
# measurement.setup: experiment 3; read-out: IC50 #3
measure.name: IC50 (µM)

# molecule, IC50, µM
rows = [
    ("Cc1ccc(-n2c(=O)c3cc4c(=O)n(-c5ccc(C)c(C)c5)c(=O)c4c(C(=O)c4ccc(C(=O)O)cc4)c3c2=O)cc1C", 11.9),
    ("N#Cc1c(O)nc(SCC(=O)N2c3ccccc3Sc3ccccc32)nc1-c1ccccc1", 8.8),
    ("COc1ccc(N2C(=O)c3ccc(Oc4ccc(Oc5ccc(C(=O)O)cc5)cc4)cc3C2=O)cc1", 5.3),
    ("Cc1cc(C)c(S(=O)(=O)Nc2ccc3c(c2)c2c(n3S(=O)(=O)c3cc(C)c(C)cc3C)CCCC2=O)cc1C", 37.9),
    ("Cc1ccc(-c2noc(-c3cc(N4CCC(C(N)=O)CC4)nc4ccccc34)n2)cc1", 7.2),
]

(a) Cc1ccc(N2NC(=O)/C(=C/c3ccc(-c4ccc5c(c4)C(=O)NC5=O)o3)C2=O)cc1C
(b) CCn1c2ccccc2c2cc([C@H]3Nc4ccccc4NC4=C3C(=O)C[C@@H](c3ccc(OC)cc3)C4)ccc21
(c) Cc1cnc(/C=C/c2ccccc2)c2[nH]c3ccccc3c12
Challenge: Please order the records by their reported IC50, lowest number first. Form entry: ranked labels (order as requested).
Response given: b, a, c
(b: 5.6 µM, a: 8.9 µM, c: 15 µM)

====

# tgt: recombinant hTREX1(1-242)WT (hT1) (Homo sapiens, UniProt Q9NSU2)
# Construct: recombinant hTREX1(1-242)^WT
# Sequence (Q9NSU2 1-242): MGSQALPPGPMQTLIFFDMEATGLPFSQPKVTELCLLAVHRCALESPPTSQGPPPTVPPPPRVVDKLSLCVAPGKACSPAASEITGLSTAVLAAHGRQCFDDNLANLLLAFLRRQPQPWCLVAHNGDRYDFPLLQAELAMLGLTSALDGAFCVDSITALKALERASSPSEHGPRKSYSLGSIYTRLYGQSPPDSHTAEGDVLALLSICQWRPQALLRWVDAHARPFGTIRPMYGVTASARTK
# measurement.description: fluorescence-based exonuclease assay, hTREX1 IC50 and HTS
# Format: biochemical
# measurement.setup: median of three independent experiments; read-out: Median IC50
measure.name: IC50 (µM)

Below, each entry is followed by its recorded IC50 result.
# molecule, IC50 / µM
measured = [
    ("Cc1cnc(/C=C/c2ccccc2)c2[nH]c3ccccc3c12 [TIM047]", 15),
    ("O=C1Nc2ccc(S(=O)(=O)ON3C(=O)c4cccc5cccc(c45)C3=O)c3cccc1c23 [TIM213]", 5),
    ("Cc1ccc(-n2c(=O)c3cc4c(=O)n(-c5ccc(C)c(C)c5)c(=O)c4c(C(=O)c4ccc(C(=O)O)cc4)c3c2=O)cc1C [TIM148]", 8.5),
    ("O=C1c2cccc([N+](=O)[O-])c2C(=O)N1c1cccc(-c2nc3ccccc3c(=O)o2)c1 [TIM136]", 9.9),
    ("CCn1c2ccccc2c2cc([C@H]3Nc4ccccc4NC4=C3C(=O)C[C@@H](c3ccc(OC)cc3)C4)ccc21 [TIM137]", 6.7),
]

(I) O=C1c2ccccc2C(=O)c2c1cc(S(=O)(=O)O)c(O)c2O [TIM009]
(II) Cc1cccc(C(=O)Nc2ccc(-c3cc4ccccc4oc3=O)cc2)c1 [TIM003]
(III) CC(C)(C)c1ccc(CC2CCN(C(=O)c3cncn3-c3cccc(-c4cccc5c4sc4ccccc45)c3)CC2)cc1 [TIM181]
Challenge: List these items ordered by IC50, big to small. Ranked list of labels, please, in the requested order.
Response given: II, III, I
